Cited source for all entries: patent US20040259888A1

Measured melting point by item

Use these answered entries as a reference point.
1) COc1cc(OC)cc(-c2oc3ncnc(N4CCN(CCO)CC4)c3c2-c2ccc(F)cc2)c1 ... 161 to 163 °C
2) COc1ccc(-c2oc3ncnc(Nc4ccncc4)c3c2-c2ccccc2)cc1OC ... > 250 °C
3) CN1CCN(c2ncnc3oc(-c4ccc(NCCO)nc4)c(-c4ccccc4)c23)CC1 ... 219 to 221 °C
4) COc1ccc(-c2oc3ncnc(N4CCN(c5ccccn5)CC4)c3c2-c2ccc(F)cc2)cc1OC ... 210 to 212 °C
5) COc1cc(OC)cc(-c2oc3ncnc(NCCc4cccs4)c3c2-c2ccccc2)c1 ... 152 to 153 °C

Consider now this further compound.
// melting point lookup, compound = `COc1ccc(-c2oc3ncnc(N4CCC(C(N)=O)CC4)c3c2-c2ccccc2)cc1OC` , result: > 250 °C

---

value-kind: melting point

// melting point lookup, molecule = CC(=O)NC(C)C(=O)Nc1ccc(-c2oc3ncnc(N4CCOCC4)c3c2-c2ccc(F)cc2)cc1 (stereo not shown) [Example 55] , result: 250 to 252 °C

// melting point lookup, molecule = OCCN(Cc1ccccc1)c1ncnc2oc(-c3ccc(F)cc3)c(-c3ccc(F)cc3)c12 [Example 177] , result: 156 to 158 °C

// melting point lookup, molecule = COC(=O)c1ccc(C(=O)Nc2ccc(-c3oc4ncnc(N5CCN(C)CC5)c4c3-c3ccc(F)cc3)cc2)cc1 [Example 88] , result: > 250 °C

// melting point lookup, molecule = CN1CCN(c2ncnc3oc(-c4ccc([N+](=O)[O-])cc4)c(-c4ccc(F)cc4)c23)CC1 [Example 3] , result: > 250 °C

---

Measured melting point by item

1. CN1CCN(c2ncnc3oc(-c4ccc(NC(=O)c5cccc([N+](=O)[O-])c5)cc4)c(-c4ccc(F)cc4)c23)CC1 [Example 48] ... > 250 °C
2. COc1ccc(-c2oc3ncnc(N4CCOCC4)c3c2-c2ccc(F)cc2)cc1OC [Example 116] ... 211 to 213 °C
3. COc1ccc(-c2oc3ncnc(N4CCN(C(C)C)CC4)c3c2-c2ccc(F)cc2)cc1OC [Example 64] ... 180 to 181 °C

Consider now this further compound.
// melting point lookup, compound = COc1cc(OC)cc(-c2oc3ncnc(NC(CO)CO)c3c2-c2ccccc2)c1 [Example 108] , result: 131 to 133 °C

---

value-kind: melting point

Use these answered entries as a reference point.
1) COc1ccc(-c2oc3ncnc(N(CCO)CCO)c3c2-c2ccccc2)cc1OC [Example 159] ... 137 to 139 °C
2) COc1ccc(-c2oc3ncnc(N4CCC(C(N)=O)CC4)c3c2-c2ccc(F)cc2)cc1OC [Example 51] ... 235 to 237 °C
3) COc1ccc(-c2oc3ncnc(N4CCC(O)CC4)c3c2-c2ccccc2)cc1OC [Example 111] ... 176 to 178 °C

Consider now this further molecule.
// melting point lookup, molecule = CN1CCN(c2ncnc3oc(-c4ccc(NC(=O)C5CCCO5)cc4)c(-c4ccc(F)cc4)c23)CC1 (stereo not shown) [Example 49] , result: > 250 °C

---

system-tested: human recombinant adenosine kinase (Homo sapiens)
Sequence (P55263 1-345 isoform P55263-2): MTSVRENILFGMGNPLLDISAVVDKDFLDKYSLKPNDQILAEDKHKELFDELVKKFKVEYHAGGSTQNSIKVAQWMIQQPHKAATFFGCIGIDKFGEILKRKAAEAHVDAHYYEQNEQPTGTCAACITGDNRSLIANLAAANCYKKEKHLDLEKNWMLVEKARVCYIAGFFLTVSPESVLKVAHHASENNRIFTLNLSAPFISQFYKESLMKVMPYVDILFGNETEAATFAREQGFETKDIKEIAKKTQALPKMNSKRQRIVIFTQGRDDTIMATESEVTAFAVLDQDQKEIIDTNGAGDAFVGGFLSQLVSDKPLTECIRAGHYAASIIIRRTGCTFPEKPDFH
assay-details: Inhibition of human recombinant adenosine kinase
test-conditions: 14C-adenosine substrate, 0.5 mM ATP, 37° C., 20 min; read-out: Adenosine kinase inhibition (in vitro): IC50
pIC50: −log10 of the molar value. Counter-ions that a name gives are not always drawn.
value-kind: pIC50

Use these answered entries as a reference point.
1. CN1CCN(c2ncnc3oc(-c4ccc(NC(=O)CN)cc4)c(-c4ccc(F)cc4)c23)CC1 [Example 6, dihydrochloride] ... 7.70
2. O=C(Nc1ccc(-c2oc3ncnc(N4CCC(O)CC4)c3c2-c2ccc(F)cc2)cc1)[C@@H]1CCCN1 [Example 201, Hydrochloride] ... 7.70
3. COc1ccc(-c2oc3ncnc(N(C)C4CCCCCC4)c3c2-c2ccc(OC)cc2)cc1 ... 7.10
4. CN1CCN(c2ncnc3oc(-c4ccc(NC(=O)c5cccnc5)cc4)c(-c4ccccc4)c23)CC1 ... 7.52
5. CN1CCN(c2ccc(-c3oc4ncnc(N5CCC(O)CC5)c4c3-c3ccccc3)cn2)CC1 ... 8.00

[P] CC(=O)N1CCN(c2ccc(-c3oc4ncnc(N5CCC(O)CC5)c4c3-c3ccc(F)cc3)cn2)CC1
[Q] CC(C)CNc1ncnc2oc(-c3ccc(C(=O)N4CCN(C)CC4)cc3)c(-c3ccccc3)c12
[R] CN1CCN(c2ncnc3oc(-c4ccc(N5CCC5=O)cc4)c(-c4ccc(F)cc4)c23)CC1
Sort these molecules on pIC50 so the largest reading comes first. Write out the labels following the order that was asked for. P, R, Q
(P: 8.30, R: 7.52, Q: 7.00)
